- test_description: Substrate specificities of KAZ mutants (ZZ-fused, crude enzyme), f-CTZ
- Type: biochemical
- measurement_context: 1 μg substrate, integrated for 60 seconds
experimental_readout: Relative Luminescence Activity f-CTZ Int.
Please give the numeric answer without any surrounding text.

Known Relative Luminescence Activity f-CTZ Int. results, listed for orientation:
KAZ: wild 19 kDa catalytic protein of Oplophorus luciferase (19kOLase), amino acid sequence SEQ ID NO: 2 (protein, listed as Oplophorus gracilirostris) FTLADFVGDWQQTAGYNQDQVLEQGGLSSLFQALGVSVTPIQKVVLSGENGLKADIHVIIPYEGLSGFQMGLIEMIFKVVYPVDDHHFKIILHYGTLVIDGVTPNMIDYFGRPYPGIAVFDGKQITVTGTLWNGNKIYDERLINPDGSLLFRVTINGVTGWRLCENILA; 0.8
KAZ-A54I-Y138I: KAZ mutant with two amino acid substitutions A54I and Y138I, SEQ ID NO: 14 (protein) FTLADFVGDWQQTAGYNQDQVLEQGGLSSLFQALGVSVTPIQKVVLSGENGLKIDIHVIIPYEGLSGFQMGLIEMIFKVVYPVDDHHFKIILHYGTLVIDGVTPNMIDYFGRPYPGIAVFDGKQITVTGTLWNGNKIIDERLINPDGSLLFRVTINGVTGWRLCENILA; 9.2

In: Entry KAZ-A54I: KAZ with single amino acid substitution A54I, SEQ ID NO: 6 (protein) FTLADFVGDWQQTAGYNQDQVLEQGGLSSLFQALGVSVTPIQKVVLSGENGLKIDIHVIIPYEGLSGFQMGLIEMIFKVVYPVDDHHFKIILHYGTLVIDGVTPNMIDYFGRPYPGIAVFDGKQITVTGTLWNGNKIYDERLINPDGSLLFRVTINGVTGWRLCENILA : reported Relative Luminescence Activity f-CTZ Int. = ?
Out: 4.9

Numbers sourced from patent US10907134B2.
